assay: Volume of distribution at 0.5 mg/kg i.v.; format: ADME, organism-based; parameters: dose 0.5 mg/kg, route intravenous; conditions: in vivo, iv, read-out: Vd
Property Measured: Vd (L/kg)

Here are 10 molecules together with their reported answers.
Molecule | Vd (L/kg)
Cn1nc(-c2ccc(S(C)(=O)=O)cc2)s/c1=N\C1CCCC(O)C1 (stereo in doubt) | 0.92
Cn1nc(-c2cccc(C#N)c2)s/c1=N\c1cccc(C(=O)O)c1 | 0.99
CN1CCN(C(=O)c2ccc(-c3nn(C)/c(=N/C4CCCCC4)s3)cc2)CC1 | 2.59
CC(=O)Nc1ccc(-c2nn(C)/c(=N/C3CCCCC3)s2)cc1 | 3.3
Cn1nc(-c2ccc(C(N)=O)cc2)s/c1=N\C1CCC(O)CC1 (configuration not stated) | 0.98
Cn1nc(-c2ccc(C(N)=O)cc2)s/c1=N\C1CCCCC1 | 7.65
Cn1nc(-c2ccc(C(=O)NC(C)(C)CO)cc2)s/c1=N\C1CCCC(O)C1 (configuration not stated) | 0.43
Cn1nc(-c2ccc(C(N)=O)cc2)s/c1=N\C1CCCCC1O (stereo in doubt; trans) | 1.47
Cn1nc(-c2ccc(C(N)=O)cc2)s/c1=N\C1CCCC(O)C1 (stereo in doubt; cis) | 1.39
CC(=O)Nc1ccc(-c2nn(C)/c(=N/C3CCCC(O)C3)s2)cc1 (trans isomer) | 2.02

a: Cn1nc(-c2ccc(S(C)(=O)=O)cc2)s/c1=N\c1cccc(C(=O)O)c1
b: Cn1nc(-c2ccc(Cl)cc2)s/c1=N\c1ccc(F)c(C(=O)O)c1
Kindly compare a with b and tell me which has the lower Vd figure. Answer by quoting the chosen item's label.
b
(b: 0.18 L/kg, a: 7.58 L/kg)

---

experiment: Half life at 2.5 mg/kg po.; assay type: ADME, organism-based; set-up: dose 2.5 mg/kg; settings: in vivo
Property Measured: half-life (h)

Here are 3 molecules together with their reported answers.
Molecule | Endpoint Unit | half-life
Cn1nc(-c2ccc(Cl)cc2)s/c1=N\c1ccc(F)c(C(=O)O)c1 | h | 1.96
Cn1nc(-c2ccc(C(N)=O)cc2)s/c1=N\C1CCCCC1O (stereo in doubt; trans) | h | 0.31
Cn1nc(-c2cccc(C#N)c2)s/c1=N\c1cccc(C(=O)O)c1 | h | 4.75

A: CC(=O)Nc1ccc(-c2nn(C)/c(=N/C3CCCCC3)s2)cc1
B: Cn1nc(-c2ccc(C(=O)NC(C)(C)CO)cc2)s/c1=N\C1CCCC(O)C1 (stereo unspecified)
C: Cn1nc(-c2ccc(C(N)=O)cc2)s/c1=N\C1CCC(O)CC1 (stereo unspecified)
Put the items in order so that reported half-life rises from first to last. Would you mind listing the labels in the order requested?
C, B, A

1: Cn1nc(-c2ccc(C(N)=O)cc2)s/c1=N\C1CCCC(O)C1 (stereo in doubt; cis)
2: Cn1nc(-c2ccc(S(C)(=O)=O)cc2)s/c1=N\c1cccc(C(=O)O)c1
Kindly compare 1 with 2 and tell me which has the lower half-life figure. Answer by quoting the chosen item's label.
1

A: CN1CCN(C(=O)c2ccc(-c3nn(C)/c(=N/C4CCCCC4)s3)cc2)CC1
B: Cn1nc(-c2ccc(S(C)(=O)=O)cc2)s/c1=N\C1CCCC(O)C1 (stereo in doubt)
A or B : whose half-life is greater? Answer by quoting the chosen item's label.
B
(B: 2 h, A: 1.37 h)
